Test system: MS2 coat protein
TEST METHOD NOTES: apparent KD of MS2 coat protein; designed switch direction (-1 OFF switch, 1 ON switch): -1; higher = weaker reporter binding
TEST CONDITIONS: Eterna round: R95; input ligand: FMN 200 uM
In this section, each of the sequences is paired with its reported apparent KD of MS2 coat protein.

MONOMER SEQUENCE	apparent KD of MS2 coat protein
GAUUAUGCGAGCUUUAGGGACAUGAGGAUCACCCAUGUUCGUCUUAUUGAUCUAGGUGCACUGACAUACCUAAAUCU [JMF 89] (puzzle: Sensor v3, turn-off variant 1)	28.5 nM
UCAAGUAUGUAGGAUAUGAUGUGAUUAUACAUAUCAGAAGGACGUACAUGAGGAUCACCCAUGUAACUUGCAUG [Exclusion 6 - B - 12:c] (puzzle: Exclusion 6)	29.8 nM
GGUGAGAGCAAGGAUAUGCAGAAGAGAGAAAGAGCAGAAGGUGCUACAUGAGGAUCACCCAUGUUGGAUGUGUU [JR_E6_Sub014] (puzzle: Exclusion 6)	46.3 nM
ACGUGAUAUCUGUCGGUGGACAUGAGGAUCACCCAUGUAAGCUUUUUGCUCGUCUUAUAACCCGGUGACAGACCUUC [Tixeed] (puzzle: Sensor v3, turn-off variant 1)	33.7 nM
GCCAGAGCAGGAUAUUCAGUAUCACACAUGAGGAUCACCCAUGUCUAUCGAAAGAUAGAGGGAGAAGGGCUCUGGC [Mat - Exclusion 5 - Eli mod - D95] (puzzle: Exclusion 5)	28.4 nM

###

Test system: MS2 coat protein
TEST METHOD NOTES: apparent KD of MS2 coat protein; designed switch direction (-1 OFF switch, 1 ON switch): -1; higher = weaker reporter binding
TEST CONDITIONS: input ligand: FMN 200 uM
Class (required): determined from apparent KD of MS2 coat protein; valid ranges are label 0 = under 30 nM, label 1 = from 30 nM up to 200 nM, label 2 = 200 nM and over

MONOMER SEQUENCE	CLASSIFICATION
GCUGCAAAUGUAGGAUAUCUGCACGUUUAGUGCAGAGAAGGACAUGAGGAUCACCCAUGUAGAUCAGCAGCAAUUAAUUUAAUU [ENG1/5-A2] (Eterna round: R96, puzzle: Exclusion NG 1)	label 2
AGCUCACAUGAGGAUCACCCAUGUCAGGAUAUCGACUGAACAGCUUCGGCUGUUCAGUCGAGAAGGGACAAUUA [Brourdxlusion 5 - Jieux - Exclusion 1] (Eterna round: R97, puzzle: Exclusion 1)	label 1
UUGGUGUCAGGAUAUGCUUAAUGUAUUUUAUUAUAAUAUAUACAUGAGGAUCACCCAUGUAGAAGGGACAUUGU [LRO-Excl2-08-Fireball XL5] (Eterna round: R97, puzzle: Exclusion 2)	label 1
CCAGCGUAUGUUAGGAUAUGCUGGUCGAAAGAUCAGCAGAAGGAACAUGAGGAUCACCCAUGUGGAAAAGUUGG [Mod of JL 25 - Jieux - Brourd's mod of Exclusion 4] (Eterna round: R97, puzzle: Brourd's mod of Exclusion 4)	label 1
UGAUGACAUGAGGAUCACCCAUGUCAGGAUAUUGAGCUUGAGCUGAAAAGUUCGAGUUCGAGAAGGGACUGUCG [-29.6, -26.6 kcal, A 28%, 1] (Eterna round: R97, puzzle: Exclusion 1)	label 0
GUAGAGUAAGGAUAUACUGAAUAGGAUAGAAUGGUUAGAAAGUAGAAGGUACAUGAGGAUCACCCAUGUAAUGU [Excluse me!!!! 19 - Jieux - Exclusion 4] (Eterna round: R96, puzzle: Exclusion 4)	label 0
UAUGUGUCAGGAUAUUAGUAGUAAAUAAAUAAAAUUAUUACUGAGAAGGGACAUGAGGAUCACCCAUGUGCCUU [Salish 062 v31] (Eterna round: R97, puzzle: Exclusion 4)	label 0
AAAAUACAUGAGGAUCACCCAUGUGAGGAUAUGAGAGUCAACUCGAGAGAGUUGAUUCUCAGAAGGCACAUAAA [JR_Ex1_Sub066] (Eterna round: R97, puzzle: Exclusion 1)	label 2
GGUCAGAUGGUAGGAUAUCCAUAUCGAGUGACUCUUUCAUAACAUGAGGAUCACCCAUGUCGGUGGGAGAAGGGCCGUACGGCG [salish99_ExNG02_R04_016] (Eterna round: R96, puzzle: Exclusion NG 2)	label 1
AUUGUUUGAUACCUCUAAUACAUGAGGAUCACCCAUGUUAUCGAGGAUAUGCAGAAUAGAUUAGAGCAGAAGGCGAAGUAAUAU [JR_ExcNG3_Sub026] (Eterna round: R96, puzzle: Exclusion NG 3)	label 1
AGAACACAUGAGGAUCACCCAUGUCAGGAUAUCGACUGAACAGCUUCGGCUGUUCAGUCGAGAAGGGACAAUUA [Brourdxlusion 6 - Jieux - Exclusion 1] (Eterna round: R97, puzzle: Exclusion 1)	label 1
UGUCCAAUACAGGAUAUUCUCGCGUAGUAGCAAGGAGAAGGGUAGACAUGAGGAUCACCCAUGUGAUUCAUCUG [Eternabot (L2) Solution 68] (Eterna round: R97, puzzle: Exclusion 6)	label 2
CUGAUGUGAGGAUAUCUACGCCAUGUCUUUGACAUGGCGCAAGAGAAGGCACAUGAGGAUCACCCAUGUACUUC [jl-ex4-4.41 ViennaUCT mod] (Eterna round: R97, puzzle: Exclusion 4)	label 1
UGCAGACGAGGAUAUAAACGAUAUAACAUGAGGAUCACCCAUGUACGAUCGAAUGAUCGUUUAGAAGGCGUCUGCU [E5/10-A3] (Eterna round: R97, puzzle: Exclusion 5)	label 0
UGAUCAGACCGAGGAUAUACAUGUAGGACCCACGUGAGUGGGUCCAUUACAUGAGGAUCACCCAUGUAGAAGGCGGUCUGAUCU [JL ENG2 1.90] (Eterna round: R96, puzzle: Exclusion NG 2)	label 2
AUAAUACAUGAGGAUCACCCAUGUGAGGAUAUACGACUCCAACCAAACUGCUUGGACCGUAGAAGGCACAAGGG [Exclusion 1 (MOD1 Esqu)] (Eterna round: R97, puzzle: Exclusion 1)	label 0

###

Tested on: K4 kissing-loop RNA reporter;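 further: bound reporter read as fluorescence of individual clusters on recovered sequencing chips by microscopy, with normalized cluster intensities fitted with a binding model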
TEST METHOD NOTES: apparent KD of K4 kissing-loop reporter; higher = weaker reporter binding
TEST CONDITIONS: Eterna round: R107; input ligand: arginine 13.2 mM
READOUT: apparent KD of K4 kissing-loop reporter (nM)

>>> print(df.to_string())
                           monomer_sequence                 tested_target                                  readout  result_unit  recorded_measurement
0  UAUACGCUAGUGAUGUUGGCGAAGACUGAAGGAGCGUGCGAGAGUACAGGUAGGUCGCAGUCAGACAGAUUGUACCUGUCUUAUG [Arg A SS t10]  K4 kissing-loop RNA reporter  apparent KD of K4 kissing-loop reporter           nM                   243
1  CCUAUCUCAUACGAUACCAGUCUAUUGUUACGAGUGAUGUUCGAAUAUUUGCCAUUCAAUGACCCUUGGCAGCGUAUGGGAUAGG [Ex Theophylline B K4 10]  K4 kissing-loop RNA reporter  apparent KD of K4 kissing-loop reporter           nM                   519
2  UGAUAGGACAGAAGGAGCGGUAGUGAUGUUACCAAAAGGAUAAGGUGUCAAAAGACACCCUGCCAGGUAGGUCGCUGUCCUAUCU  K4 kissing-loop RNA reporter  apparent KD of K4 kissing-loop reporter           nM                   100

###

In this section, each of the sequences is paired with its reported apparent KD of MS2 coat protein.
Tested on: MS2 coat protein
TEST METHOD NOTES: apparent KD of MS2 coat protein, switch OFF state (with FMN for OFF switches, without FMN for ON switches); designed switch direction (-1 OFF switch, 1 ON switch): 1; higher = weaker reporter binding
TEST CONDITIONS: FMN input: 0 or 200 uM; Eterna round: R93 (includes R88 designs)
READOUT: apparent KD of MS2 coat protein (nM)

MONOMER SEQUENCE	RECORDED MEASUREMENT
AAAGAAAAACUAGAGGAUAUCUGAGUGGUAACAUGAGGAUCACCCAUGUGAAGAAAGGAGCAUGAGGAGAAGGCUAGAAGAAAAA [JL Nando mod 22]	59
UAUCCGGCAGUGUAGGAUAUGUUGUAGUCAACAUGAGGAUCACCCAUGUGGAUUAUAUAAGAUUCACAGAAGGGCACUGCAUUGC [Geiner]	74.1
GGCUGCAAUUAUGAGGAUAUGUUCGGAUGAACAUGAGGAUCACCCAUGUGGCGAUAGCUAUCUGUGCAGAAGGUGUAGUGGUAGC [Edlexete]	130
AAAAAACAUGAGGAUCACCCAUGUCGAAAGACAUGAGGAUAUGUACAGACUUCGGUCUGUACAGAAGGCAUGAAAA [SS1 - 1012]	79.3
AAAUAAAGGACUAAGGAUAUAUCACAUGAAACAUGAGGAUCACCCAUGUAAUAAUACAAAGGGUGAUAGAAGGUAGUCCACAAACA [Pariah 5 (MS2 Riboswitches - Same State 2)]	37.1
AAACCACAUGAGGAUCACCCAUGUAAAAAUAUGGGAGGAUAUCGGAAUAAAAUAAAGAAACGAGAAGGCCUAAAAG [59%, Flamingo, 4]	292
AAAAAACAUGAGGAUCACCCAUGUAGAAAUAUGGGAGGAUAUGGAAACACGAAAGUGAAACCAGAAGGCUCAAAAG [77%, Mat - Mod of Eli, 8]	69.5
AAAAAAGAUCUAGAGGAUAUCCGAGUGGUAACAUGAGGAUCACCCAUGUGAAGAAAGGAACAUGAGGAGAAGGCUAGAUCAAAAA [JL Nando Mod 1]	10.7
AACAGACAUGAGGAUCACCCAUGUAGAAUUAUGGGAGGAUAUACAAAGACGAGAGUCAGAGUAGAAGGCCUAGGAA [salish99-ss1-165]	89.7
GAGAGACAUGAGGAUCACCCAUGUAGGAUUAUGGGAGGAUAUACAAAGACGAGAGUCAGAGUAGAAGGCCUAGGAA [salish99-ss1-137(!)]	74.4
AAGAAACAUGAGGAUCACCCAUGUAGAAACAUGGGAGGAUAUACAAAGACGAAAGUCAAAGUAGAAGGCCUAAAAA [Mat - Same State 1 - Mod - D165]	141
CCCAAUGCAACGAAGGAUAUCCGUCAUGCUACAUGAGGAUCACCCAUGUACUGGCAGCGCAAGGCGGAGAAGGUCGGGUGCUGUG [Leusesbe]	12.6
GGAAGACAUGAGGAUCACCCAUGUGGGAUUAUGGGAGGAUAUACAAAGACGAGAGUCAGAGUAGAAGGCCUAGGAG [salish99-ss1-122(!)]	107
UGGAAACAUGAGGAUCACCCAUGUAAAAGGUGGUUAGGAUAUGCAAAACGGAAAACGAAAGCAGAAGGGACAAAAA [Inspired by JR and Meechl]	320
AGAAAGAAAAGAGAGGAUAUCUAAAAGAAAACAUGAGGAUCACCCAUGUAAAAGAAAAGAAAAUGGGAGAAGGCUUAUGAGAAAG [JL Skelter Mod 8 In the Red]	82
AAUAAUUAUAUGGAGGAUAUCCGUAAUAAGACAUGAGGAUCACCCAUGUAAUAAGGUUAAAUAAAGGAGAAGGCCAAGGGUGAAA [JR_SS002_Sub004]	344
AUAAAAUAAAGUCAGGAUAUCUAUAAUAAAACAUGAGGAUCACCCAUGUUAAAAAAAAGAUCAUGGGAGAAGGGACAAAAUAAAU [SS2 M 32]	28.3
GAAAAACAUGAGGAUCACCCAUGUGAGAAUAUGGGAGGAUAUACGAAGACGAGAGUCAAAGUAGAAGGCCUAAAAG [Mat - Same State 1 - Eli mod - 30]	82.9
AACAUACAUGAGGAUCACCCAUGUUCCGGCAGGACAGGAUAUACAUCGAAAGUGUUAUAAGUAGAAGGGUCAUAAA [JR_SS001_Sub012]	66.5
CGAAAGGAGAGAGAGGAUAUCCAAAGGAAAACAUGAGGAUCACCCAUGUAGAAGGUAGGAGAUUGGGAGAAGGCUCAAGAGAGAU [salish99-ss2-147]	34.3
AGCGAACAUGAGGAUCACCCAUGUCCCGCGAAUCAAGGAUAUGGGCAGAUGAGUCCUGCGCCAGAAGGUGAGUAAA [Rigeesar]	132
CGGAAGGAGAGAGAGGAUAUCCAAAGGAAAACAUGAGGAUCACCCAUGUAGAAGGUAGGAAAUUGGGAGAAGGCUCAAGAGACAG [salish99-ss2-125]	55.9
AUUACAUAUAGUUAGGAUAUCAUAUGUAAGACAUGAGGAUCACCCAUGUCCUAAGAAUAGGUAAAUGAGAAGGAACAGUGAGUAU [JR_SS002_Sub419]	23.9
GAGGACAUAGUACAGGAUAUAUGAAUAGUCACAUGAGGAUCACCCAUGUCCAUUUAUAUGGGCACAUAGAAGGGUGGUAGUUAUC [SameState2 Malc#27]	347
